Overview of recorded Cytotoxic properties (IC 90) KB-403 for various compounds
# System: KB-403 mouth cancer cells
# runParameters: MTT assay; 6 h exposure, then 48 h in fresh media; 90% inhibition of cell growth

{"compound": "CC(=O)O[C@H]1C[C@H]2OC[C@@]2(OC(C)=O)[C@H]2[C@H](OC(C)=O)[C@]3(C(C)(C)O)C[C@H](O)C(C)=C3[C@@H](O)[C@H](OC(C)=O)[C@]12C", "Cytotoxic properties (IC 90) KB-403": ">10.0 µg/mL"}
{"compound": "C=C1C2C[C@]3(C(C)(C)O)CC(O)C(C)=C3[C@@H](OC(=O)c3ccccc3)[C@H](OC(C)=O)[C@]2(C)[C@@H](OC(C)=O)C[C@@H]1O (stereo partly shown)", "Cytotoxic properties (IC 90) KB-403": "0.035 µg/mL"}
{"compound": "C=C1[C@@H](OC(=O)/C=C/c2ccccc2)C[C@H](OC(C)=O)[C@]2(C)[C@@H]1C[C@@H]1C[C@H](OC(C)=O)C(C)=C([C@@H](OC(C)=O)[C@@H]2OC(C)=O)C1(C)C", "Cytotoxic properties (IC 90) KB-403": "3.5 µg/mL"}
{"compound": "C=C1[C@H]2C[C@@H]3C[C@H](OC(C)=O)C(C)=C([C@@H](OC(C)=O)[C@H](OC(C)=O)[C@]2(C)[C@@H](OC(C)=O)C[C@@H]1O)C3(C)C", "Cytotoxic properties (IC 90) KB-403": "0.01 µg/mL"}
